# Tested on: Saccharomyces cerevisiae
# experiment.notes: fraction of cells in G1 phase (DNA content, flow cytometry); higher = more cells with unreplicated DNA (G1 delay)
# experimental.parameters: temperature: 30 C; YPD; JTY2953 pdr5 snq2 (sensitized); drug added to: cultures diluted from stationary phase; 6-7 h
Counter-ions that a name gives are not always drawn.
metric: fraction of cells in G1 phase

# compound, tested.target, test.value
records = [
    ("CN(C)C(=N)NC(=N)N [Metformin] (154.84 µM)", "Saccharomyces cerevisiae", 0.516),
    ("CC(C(=O)O)c1cccc(C(=O)c2ccccc2)c1 (stereo not drawn) [Ketoprofen] (78.6509 µM)", "Saccharomyces cerevisiae", 0.502),
    ("O=C(c1ccc(F)cc1)C1CCN(CCn2c(=O)[nH]c3ccccc3c2=O)CC1 [Ketanserin tartrate] (50.5769 µM)", "Saccharomyces cerevisiae", 0.475),
    ("CN1CCN(c2c(F)cc3c(=O)c(C(=O)O)cn4c3c2SCC4)CC1 [Rufloxacin] (55.0337 µM)", "Saccharomyces cerevisiae", 0.466),
    ("C=CCc1ccccc1OCC(O)CNC(C)C (stereo not drawn) [Alprenolol HCl] (80.2066 µM)", "Saccharomyces cerevisiae", 0.52),
    ("Nc1ccc(O)c(C(=O)O)c1 [5-aminosalicylic acid] (130.601 µM)", "Saccharomyces cerevisiae", 0.48),
    ("CN(C)C(=O)C(CCN1CCC(O)(c2ccc(Cl)cc2)CC1)(c1ccccc1)c1ccccc1 [Loperamide] (38.9864 µM)", "Saccharomyces cerevisiae", 0.512),
    ("CCN(CC)CCNC(=O)c1ccc(N)cc1 [Procainamide] (73.5835 µM)", "Saccharomyces cerevisiae", 0.494),
]

---

Each entry below lists one item and its recorded fraction of cells in G1 phase value.
# System: Saccharomyces cerevisiae
# experiment.notes: fraction of cells in G1 phase (DNA content, flow cytometry); higher = more cells with unreplicated DNA (G1 delay)
# experimental.parameters: temperature: 30 C; YPD; JTY2953 pdr5 snq2 (sensitized); drug added to: cultures diluted from stationary phase; 6-7 h
Where a name gives a salt, the structure may show the parent alone.

# compound, tested.target, fraction of cells in G1 phase
measured = [
    ("C/N=C(/NC#N)NCCSCc1csc(NC(=N)N)n1 [Tiotidine] (64.0163 µM)", "Saccharomyces cerevisiae", 0.478),
    ("CC[C@]1(O)C[C@@H]2CN(CCc3c([nH]c4ccccc34)[C@@](C(=O)OC)(c3cc4c(cc3OC)N(C)[C@H]3[C@@](O)(C(=O)OC)[C@H](OC(C)=O)[C@]5(CC)C=CCN6CC[C@]43[C@@H]65)C2)C1 [Vinblastine sulfate] (21.9998 µM)", "Saccharomyces cerevisiae", 0.495),
    ("Cn1c(=O)c2c(ncn2CC2OCCO2)n(C)c1=O [Doxofylline] (75.1149 µM)", "Saccharomyces cerevisiae", 0.465),
    ("Cc1c(Cl)cccc1Nc1ccccc1C(=O)O [Tolfenamic acid] (76.4204 µM)", "Saccharomyces cerevisiae", 0.53),
    ("COc1cc(C)c(/C=C/C(C)=C/C=C/C(C)=C/C(=O)O)c(C)c1C [Acitretin] (61.2745 µM)", "Saccharomyces cerevisiae", 0.563),
    ("N[C@@H](Cc1ccc(O)c(O)c1)C(=O)O [Levodopa] (101.424 µM)", "Saccharomyces cerevisiae", 0.487),
    ("COc1c(C)c2c(c(O)c1C/C=C(\\C)CCC(=O)O)C(=O)OC2 [Mycophenolic acid] (62.4326 µM)", "Saccharomyces cerevisiae", 0.54),
    ("N.N.O=C([O-])C[O-].[Pt+2] [Nedaplatin] (65.9657 µM)", "Saccharomyces cerevisiae", 0.545),
    ("C[C@H]1C[C@@H]2[C@H]([C@@H](O)C[C@@]3(C)[C@H]2CC[C@]3(O)C(=O)CO)[C@@]2(C)C=CC(=O)C=C12 [Methylprednisolone] (53.4072 µM)", "Saccharomyces cerevisiae", 0.481),
    ("OCCN1CCN(CCCN2c3ccccc3Sc3ccc(C(F)(F)F)cc32)CC1 [Fluphenazine 2HCl] (45.711 µM)", "Saccharomyces cerevisiae", 0.862),
    ("Fc1ccc([C@@H]2CCNC[C@H]2COc2ccc3c(c2)OCO3)cc1 [Paroxetine HCl] (60.7211 µM)", "Saccharomyces cerevisiae", 0.387),
    ("NC1CCN(c2c(F)cc3c(=O)c(C(=O)O)cn(C4CC4)c3c2Cl)C1 (configuration not stated) [Clinafloxacin HCl] (54.6755 µM)", "Saccharomyces cerevisiae", 0.254),
    ("COc1ccc(/C=C/C(=O)Nc2ccccc2C(=O)O)cc1OC [Tranilast] (61.0986 µM)", "Saccharomyces cerevisiae", 0.546),
    ("COc1ccccc1O [Guaiacol] (161.108 µM)", "Saccharomyces cerevisiae", 0.531),
    ("C[C@@H]1CN(c2c(F)c(N)c3c(=O)c(C(=O)O)cn(C4CC4)c3c2F)C[C@H](C)N1 [Sparfloxacin] (50.9672 µM)", "Saccharomyces cerevisiae", 0.366),
    ("CCN1CCCC1CNC(=O)c1cc(S(=O)(=O)CC)c(N)cc1OC (configuration not stated) [Amisulpride] (54.1272 µM)", "Saccharomyces cerevisiae", 0.471),
    ("CNC(=C[N+](=O)[O-])NCCSCc1ccc(CN(C)C)o1 [Ranitidine HCl] (63.6114 µM)", "Saccharomyces cerevisiae", 0.501),
]

---

# Test system: Saccharomyces cerevisiae
# experiment.notes: fraction of cells in G1 phase (DNA content, flow cytometry); higher = more cells with unreplicated DNA (G1 delay)
# experimental.parameters: temperature: 30 C; YPD; JTY2953 pdr5 snq2 (sensitized); drug added to: cultures diluted from stationary phase; 6-7 h
Counter-ions that a name gives are not always drawn.
metric: fraction of cells in G1 phase

# compound, test.value
records = [
    ("CCOC(=O)[C@H](CCc1ccccc1)N[C@@H](C)C(=O)N1CCC[C@H]1C(=O)O [Enalapril] (53.127 µM)", 0.511),
    ("CC1(C)S[C@@H]2[C@H](NC(=O)[C@H](N)c3ccccc3)C(=O)N2[C@H]1C(=O)O [Ampicillin trihydrate] (57.2391 µM)", 0.497),
    ("CO[C@@H]1[C@@H](OC(N)=O)[C@@H](O)[C@H](Oc2ccc3c(O)c(NC(=O)c4ccc(O)c(CC=C(C)C)c4)c(=O)oc3c2C)OC1(C)C [Novobiocin Na] (32.6456 µM)", 0.513),
    ("O=C(c1ccc(OCCN2CCCCC2)cc1)c1c(-c2ccc(O)cc2)sc2cc(O)ccc12 [Raloxifene HCl] (42.2301 µM)", 0.508),
    ("C[C@@H](O)[C@H]1C(=O)N2C(C(=O)O)=C(SCCNC=N)C[C@H]12 [Imipenem] (66.8112 µM)", 0.486),
]

---

Each entry below lists one item and its recorded fraction of cells in G1 phase value.
# Test system: Saccharomyces cerevisiae
# experiment.notes: fraction of cells in G1 phase (DNA content, flow cytometry); higher = more cells with unreplicated DNA (G1 delay)
# experimental.parameters: temperature: 30 C; YPD; JTY2953 pdr5 snq2 (sensitized); drug added to: actively dividing cells; 6 h
Counter-ions that a name gives are not always drawn.

# compound, fraction of cells in G1 phase
data = [
    ("COc1ccc(-c2cc(=S)ss2)cc1 [Anethole-trithione (anetholtrithion)] (83.2062 µM)", 0.486),
    ("CN1CCC[C@@H]1CCO[C@](C)(c1ccccc1)c1ccc(Cl)cc1 [Clemastine fumarate] (58.1564 µM)", 0.585),
    ("O=C1Nc2ccc(Cl)cc2[C@@](C#CC2CC2)(C(F)(F)F)O1 [Efavirenz] (63.355 µM)", 0.4),
    ("CC/C(=C(\\c1ccccc1)c1ccc(OCCN(C)C)cc1)c1ccccc1 [Tamoxifen citrate] (53.8319 µM)", 0.385),
    ("O=C(CCCN1CCC(O)(c2ccc(Cl)cc2)CC1)c1ccc(F)cc1 [Haloperidol HCl] (53.2093 µM)", 0.762),
    ("c1ccc(-c2ccc(C(c3ccccc3)n3ccnc3)cc2)cc1 (centres undefined) [Bifonazole] (64.4325 µM)", 0.474),
    ("OCCN1CCN(CCCN2c3ccccc3Sc3ccc(C(F)(F)F)cc32)CC1 [Fluphenazine 2HCl] (45.711 µM)", 0.327),
    ("CCCCCCCCCCCCCCCCOP(=O)([O-])OCC[N+](C)(C)C [Miltefosine] (49.0703 µM)", 0.596),
    ("COC1=C(OC)C(=O)C(CCCCCCCCCCO)=C(C)C1=O [Idebenone] (59.0933 µM)", 0.472),
    ("C[C@]12CCC(=O)C=C1C=C[C@@H]1[C@@H]2CC[C@@]2(C)[C@H]1CC[C@@]21CCC(=O)O1 [Canrenone] (58.7429 µM)", 0.649),
    ("COC(=O)C1=C(C)NC(C)=C(C(=O)OCCCN2CCC(c3ccccc3)(c3ccccc3)CC2)[C@H]1c1cccc([N+](=O)[O-])c1 [Niguldipine HCl] (30.9502 µM)", 0.389),
    ("CSc1ccc2c(c1)N(CCC1CCCCN1C)c1ccccc1S2 (centres undefined) [Thioridazine HCl] (53.969 µM)", 0.469),
    ("C=C1/C(=C\\C=C2/CCC[C@]3(C)[C@@H]([C@H](C)CCCC(C)C)CC[C@@H]23)C[C@@H](O)C[C@@H]1O [Alfacalcidol] (49.9188 µM)", 0.651),
    ("Clc1ccc(COC(Cn2ccnc2)c2ccc(Cl)cc2Cl)c(Cl)c1 (centres undefined) [Miconazole] (48.0611 µM)", 0.467),
    ("Cc1ccc(C)c(OCCCC(C)(C)C(=O)O)c1 [Gemfibrozil] (79.8911 µM)", 0.667),
    ("CC(C(O)c1ccc(O)cc1)N1CCC(Cc2ccccc2)CC1 (centres undefined) [Ifenprodil] (61.4525 µM)", 0.694),
    ("CN1CCN(CCCN2c3ccccc3Sc3ccc(C(F)(F)F)cc32)CC1 [Trifluoperazine 2HCl] (41.632 µM)", 0.295),
    ("CCN(CC)CCOc1ccc(C(=C(Cl)c2ccccc2)c2ccccc2)cc1 [Clomiphene citrate] (49.2645 µM)", 0.388),
    ("CC(C)(C)c1ccc(C(O)CCCN2CCC(C(O)(c3ccccc3)c3ccccc3)CC2)cc1 (centres undefined) [Terfenadine] (42.4008 µM)", 0.324),
]
